target: HLA-DRB1*09:01 (Homo sapiens, UniProt P01903+P01911, A100R/A103E/D57H/D86V/F55Y/F60I/F76Y/I96F/K127E/L162R/M171V/P40D/Q125H/Q99R/R33Q/R42F/S133A/S66N/T210M/V115G/W38K/Y107V/Y59G/Y89S); construct: HLA-DR heterodimers were purified from homozygous Epstein–Barr virus B-lymphoblastoid cell lines; host or cells: homozygous EBV B-lymphoblastoid cell line; test: Peptide/HLA-DR binding, competitive ELISA; conditions: ratio IC50 of peptide / IC50 of reference peptide CTP 427–441, lower = higher affinity, ratio 20 or less high, 20–100 moderate, three independent experiments
Parameter Measured: Relative binding affinity of peptide to HLA-DR molecules DRB1*0901
Give bare numbers.

9: SseB overlapping library peptide, residues 81–100 (MDEVIAKAAKGDAKTKEEVP) [Peptide 9] :: 626
4: SseB overlapping library peptide, residues 31–50 (DDLSQQNPFAEGYGVLLILL) [Peptide 4] :: 28

# input for lookup
-- ask Read off the recorded Relative binding affinity of peptide to HLA-DR molecules DRB1*0901 for AVLTQLTGLISKWGEISSMIAQKTYS [Peptide 18, SseB overlapping library peptide, residues 171–196]
-- reply 21

* * *

biological target: HLA-DRB1*11:01 (Homo sapiens, UniProt P01903+P01911, A100R/A169T/A87E/I96F/K41T/L162R/M171V/P40S/Q125H/Q178H/Q39Y/Q99D/R42S/S66Y/T262R/V115G/W38E); conditions: competitive ELISA; ratio IC50 of peptide / IC50 of reference peptide HA 306–318; lower = higher affinity; ratio 20 or less high, 20–100 moderate; three independent experiments
Sequence (P01903 26-254, other chains not shown): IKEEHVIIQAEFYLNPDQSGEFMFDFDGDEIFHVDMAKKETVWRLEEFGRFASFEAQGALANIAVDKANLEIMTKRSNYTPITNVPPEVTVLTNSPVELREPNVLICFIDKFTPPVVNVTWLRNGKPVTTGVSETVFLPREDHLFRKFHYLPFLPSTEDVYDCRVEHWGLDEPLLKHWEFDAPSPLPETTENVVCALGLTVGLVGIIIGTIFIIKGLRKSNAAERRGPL
For each entry below, report its Relative binding affinity of peptide to HLA-DR molecules DRB1*1101 value.

Answered examples (5):
12: SseB overlapping library peptide, residues 111–130 (GILIDGMTIDDYMAKYGDHG) [Peptide 12] :: > 278
13: SseB overlapping library peptide, residues 121–140 (DYMAKYGDHGKLDKGGLQAI) [Peptide 13] :: > 278
16: SseB overlapping library peptide, residues 151–170 (NTDLMSQGQITIQKMSQELN) [Peptide 16] :: > 278
5: SseB overlapping library peptide, residues 41–60 (EGYGVLLILLMVIQAIANNK) [Peptide 5] :: > 278
11: SseB overlapping library peptide, residues 101–120 (EDVIKYMRDNGILIDGMTID) [Peptide 11] :: > 278

Give Relative binding affinity of peptide to HLA-DR molecules DRB1*1101 for all substances that follow.
1. AVLTQLTGLISKWGEISSMIAQKTYS [Peptide 18]
2. 15: SseB overlapping library peptide, residues 141–160 (KAALDNDANRNTDLMSQGQI) [Peptide 15]
3. 14: SseB overlapping library peptide, residues 131–150 (KLDKGGLQAIKAALDNDANR) [Peptide 14]
4. 6: SseB overlapping library peptide, residues 51–70 (MVIQAIANNKFIEVQKNAER) [Peptide 6]

-- reply
[7, "> 278", "> 278", 8]

* * *

Assignment: determine reported Relative binding affinity of peptide to HLA-DR molecules DRB1*1202 for the given substances.
Target: HLA-DRB1*12:02 (Homo sapiens, UniProt P01903+P01911, A100R/A169T/D57E/D86V/F55L/H45Y/I96F/K41T/L162R/M171V/P40S/Q125H/Q178H/Q39Y/Q99D/R42G/S66L/T262R/V114A/V67L/W38E/Y59H/Y61H/Y89S)
Assay: Peptide/HLA-DR binding, competitive ELISA
Conditions: ratio IC50 of peptide / IC50 of reference peptide TFR 141–155, lower = higher affinity, ratio 20 or less high, 20–100 moderate, three independent experiments
Description: HLA-DR heterodimers were purified from homozygous Epstein–Barr virus B-lymphoblastoid cell lines (HPA Culture Collections, Salisbury, UK) by affinity chromatography with the monomorphic HLA-DRα monoclonal antibody, L243.[29],[30] Binding of the SseB peptide panel to the HLA-DR molecules HLA-DRB1*01:01, 03:01, 04:01, 07:01, 09:01, 11:01, 12:02, 15:01, 15:02 was assessed by competitive ELISA, as previously described, using an automated workstation.[29],[30] […]

Please review the following examples before continuing.
7: SseB overlapping library peptide, residues 61–80 (FIEVQKNAERARNTQEKSNE) [Peptide 7] :: > 136
MSSGNILWGSQNPIVFKNSF [Peptide 1, SseB overlapping library peptide, residues 1–20] :: 3
15: SseB overlapping library peptide, residues 141–160 (KAALDNDANRNTDLMSQGQI) [Peptide 15] :: > 136
3: SseB overlapping library peptide, residues 21–40 (GVSNADTGSQDDLSQQNPFA) [Peptide 3] :: > 136
13: SseB overlapping library peptide, residues 121–140 (DYMAKYGDHGKLDKGGLQAI) [Peptide 13] :: > 136

Below is a list of substances. For each, state its recorded Relative binding affinity of peptide to HLA-DR molecules DRB1*1202.
1. 2: SseB overlapping library peptide, residues 11–30 (QNPIVFKNSFGVSNADTGSQ) [Peptide 2]
2. 17: SseB overlapping library peptide, residues 161–180 (TIQKMSQELNAVLTQLTGLI) [Peptide 17]
3. 6: SseB overlapping library peptide, residues 51–70 (MVIQAIANNKFIEVQKNAER) [Peptide 6]

-- reply
1. 59
2. > 136
3. 2

Please give Relative binding affinity of peptide to HLA-DR molecules DRB1*1202 for each item listed below.
1. 9: SseB overlapping library peptide, residues 81–100 (MDEVIAKAAKGDAKTKEEVP) [Peptide 9]
2. 11: SseB overlapping library peptide, residues 101–120 (EDVIKYMRDNGILIDGMTID) [Peptide 11]

-- reply
1: > 136; 2: 8

-- ask Identify Relative binding affinity of peptide to HLA-DR molecules DRB1*1202 associated with the substance 5: SseB overlapping library peptide, residues 41–60 (EGYGVLLILLMVIQAIANNK) [Peptide 5]
-- reply > 136
